Numbers sourced from ChEMBL document CHEMBL4825753.

protocolDescription: AUC in C57BL/6J mouse at 100 mg/kg, po measured up to 24 hrs
Assay type: ADME, organism-based
Design: route oral, dose 100 mg/kg, time <=24
measurementContext: in vivo
So I've got a bunch of compounds here, and I need their AUC at 24 h values.
Entry format: amount then unit.

Request: Please report the recorded AUC at 24 h for Cc1cc(-c2c(C)nn(C)c2C)ccc1-c1nnc(N(C)Cc2ccc3nccn3c2)o1 .
Result: 295 µM·h

Request: Quick one: AUC at 24 h for Cc1cc(-c2c(C)nn(C)c2C)cnc1-c1nnc(N(C)Cc2ccc3ncc(-c4ccc(CN(C)C)cc4)n3c2)o1 ?
Result: 71 µM·h

---

Give IC50 for every item shown.
testedSystem: Receptor-type tyrosine-protein kinase FLT3 (Homo sapiens, UniProt P36888)
Sequence (P36888 whole entry): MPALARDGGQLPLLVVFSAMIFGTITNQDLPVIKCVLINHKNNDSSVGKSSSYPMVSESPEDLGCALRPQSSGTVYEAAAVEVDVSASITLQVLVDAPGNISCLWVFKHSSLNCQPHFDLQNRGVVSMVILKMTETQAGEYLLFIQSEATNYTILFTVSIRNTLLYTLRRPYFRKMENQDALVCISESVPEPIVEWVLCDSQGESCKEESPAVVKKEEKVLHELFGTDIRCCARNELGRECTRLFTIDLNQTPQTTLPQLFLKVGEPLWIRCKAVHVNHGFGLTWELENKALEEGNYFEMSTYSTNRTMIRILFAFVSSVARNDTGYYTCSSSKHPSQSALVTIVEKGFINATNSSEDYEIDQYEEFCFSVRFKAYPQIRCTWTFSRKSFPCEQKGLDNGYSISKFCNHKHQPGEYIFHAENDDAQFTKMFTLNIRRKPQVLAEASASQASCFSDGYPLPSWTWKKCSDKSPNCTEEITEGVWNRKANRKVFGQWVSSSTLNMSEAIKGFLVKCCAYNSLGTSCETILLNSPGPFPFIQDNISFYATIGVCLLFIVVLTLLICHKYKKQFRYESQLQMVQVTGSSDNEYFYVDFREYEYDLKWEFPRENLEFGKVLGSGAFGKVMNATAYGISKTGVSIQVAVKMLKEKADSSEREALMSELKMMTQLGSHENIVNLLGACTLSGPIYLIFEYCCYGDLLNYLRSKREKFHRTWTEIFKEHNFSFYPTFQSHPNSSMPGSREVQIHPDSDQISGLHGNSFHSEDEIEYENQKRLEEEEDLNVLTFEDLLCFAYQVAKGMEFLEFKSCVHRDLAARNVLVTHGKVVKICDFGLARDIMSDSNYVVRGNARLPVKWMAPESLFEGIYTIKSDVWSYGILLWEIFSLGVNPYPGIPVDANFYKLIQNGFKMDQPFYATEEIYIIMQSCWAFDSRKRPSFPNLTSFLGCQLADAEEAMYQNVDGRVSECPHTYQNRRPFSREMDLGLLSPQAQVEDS
protocolDescription: Inhibition of FLAG-tagged FLT3 (unknown origin) transfected in Cos-7 cells assessed as phosphorylation level incubated for 1 hr by ELISA
Assay type: cell-based

Request: What value of measured IC50 is listed for Cc1nn(C)c(C)c1-c1ccc(-c2nnc(N(C)Cc3ccc4nccn4c3)o2)c(F)c1 ?
Result: > 31.6 µM

Request: Item under review: Cc1cc(-c2c(C)nn(C)c2C)ccc1-c1nnc(N(C)Cc2ccc3nccn3c2)o1 . Reported IC50?
Result: 20 µM

Request: Can you look up the measured IC50 of Cc1cc(-c2c(C)nn(C)c2C)cnc1-c1nnc(N(C)Cc2ccc3ncc(-c4cnn(CCN(C)C)c4)n3c2)o1 for me?
Result: > 31.6 µM

Request: Quick one: IC50 for Cc1cc(-c2c(C)n[nH]c2C)ccc1-c1nnc(N(C)Cc2ccc3nccn3c2)o1 ?
Result: 7.94 µM

Request: What measured IC50 goes with Cc1cc(-c2cnn(C)c2C)ccc1-c1nnc(N(C)Cc2ccc3nccn3c2)o1 ?
Result: > 31.6 µM

Request: # query: IC50 of entry Cc1cc(-c2c(C)nn(C)c2C)ccc1-c1nnc(N(C)Cc2ccc3ncc(-c4cnn(C)c4)n3c2)o1
Result: 12.6 µM

Request: Request the reported IC50 associated with Cc1nn(C)c(C)c1-c1ccc(-c2nnc(N(C)Cc3ccc4nccn4c3)o2)c(C#N)c1
Result: > 31.6 µM

Request: For Cc1cc(-c2c(C)nn(C)c2C)cnc1-c1nnc(N(C)Cc2ccc3ncc(-c4ccc(CN(C)C)cn4)n3c2)o1 , what is its reported IC50?
Result: 25.1 µM

Request: Return reported IC50; argument: Cc1cc(-c2c(C)nn(C)c2C)cnc1-c1nnc(N(C)Cc2ccc3ncc(-c4ccc(CN(C)C)nc4)n3c2)o1
Result: > 31.6 µM

Request: Entry under review: Cc1cc(-c2c(C)nn(C)c2C)cnc1-c1nnc(N(C)Cc2ccc3ncc(-c4cccc(CN(C)C)c4)n3c2)o1 . Reported IC50?
Result: > 31.6 µM

Request: Which IC50 is reported for this compound? Cc1cc(-c2c(C)nc(C)n2C)ccc1-c1nnc(N(C)Cc2ccc3nccn3c2)o1
Result: > 50.1 µM

Request: Which IC50 value is on record for Cc1cc(-c2c(C)nn(C)c2C)cnc1-c1nnc(N(C)Cc2ccc3nccn3c2)o1 ?
Result: > 31.6 µM

Request: # IC50 lookup, item Cc1cc(-c2c(C)nn(C)c2C)ccc1-c1nnc(N(C)Cc2ccc3ncc(-c4cnn(CCN(C)C)c4)n3c2)o1
Result: > 31.6 µM

Request: Entry Cc1nc(-c2c(C)nn(C)c2C)ccc1-c1nnc(N(C)Cc2ccc3nccn3c2)o1 : reported IC50 = ?
Result: > 31.6 µM

Request: Report IC50 for Cc1cc(-c2c(C)nn(C)c2C)cnc1-c1nnc(N(C)Cc2ccc3ncc(-c4ccc(CN(C)C)cc4)n3c2)o1 please.
Result: > 31.6 µM

Request: Fill in: IC50 of Cc1nn(C)c(C)c1-c1ccc(-c2nnc(N(C)Cc3ccc4nccn4c3)o2)c(Cl)c1 is ___
Result: > 31.6 µM

Request: Need IC50, item Cc1cc(-c2c(C)nn(C)c2C#N)ccc1-c1nnc(N(C)Cc2ccc3nccn3c2)o1
Result: > 31.6 µM

Request: What measured IC50 goes with CN1CCN(Cc2ccc(-c3ccc(CO[C@H]4CCC[C@@H]4NC(=O)c4cc(-c5cnn(C)c5)cnc4N)cc3)cc2)CC1 ?
Result: 10 µM

Request: Which value of IC50 has been reported for Cc1cc(-c2c(C)nn(C)c2C)ccc1-c1nnc(N(C)Cc2ccc3ncc(-c4ccccc4)n3c2)o1 in the records?
Result: 7.94 µM

Request: Look up IC50: Cc1cc(-c2c(C)nn(C(F)F)c2C)ccc1-c1nnc(N(C)Cc2ccc3nccn3c2)o1
Result: > 31.6 µM

Request: Query (compound): Cc1cc(-c2c(C)nn(C)c2C)ccc1-c1nnc(N(C)Cc2ccc3ncc(C(=O)N(C)C)n3c2)o1 ; field requested: IC50
Result: 10 µM

Request: What IC50 value was documented for this compound, Cc1cc(-c2c(C)nn(C)c2C)ccc1-c1nnc(N(C)Cc2ccc3ncc(C4CCN(C)CC4)n3c2)o1 ?
Result: > 31.6 µM

Request: Endpoint output: IC50 of COc1cc(-c2c(C)nn(C)c2C)ccc1-c1nnc(N(C)Cc2ccc3nccn3c2)o1 . Value?
Result: > 31.6 µM
